system.tested: T1, human ErbB3 extracellular domain (ECD, residues 21-643) (Homo sapiens, UniProt P21860)
T1 construct: ErbB3 (HER3) receptor, human, extracellular domain, residues 21-643; secreted with the Igκ leader of the pEE vector; Glycosylated, MW 75 kDa; also called ErbB3 ECD; HER3 extracellular domain; source: CHO-T-HC cells, transiently transfected, secreted, purified (IMAC on HisTrap, SEC on Superdex 200 pg)
assay.explanation: SPR; ErbB3 ECD immobilised on a CM5 chip by amine coupling; Biacore T200, 37 °C; antibodies in HBS (10 mM HEPES pH 7.4, 150 mM NaCl) with 50 µg/mL BSA; sensograms fitted globally by a 1:1 model at three concentrations near KD; geometric means of two experiments
condition.notes: both partners purified

{"columns": ["binder", "koff (s⁻¹)"],
 "data": [
  ["pelB-BCD090-P1-His5 (VHH, as the VHH of m1 (BCD090-P1), with the uncleaved pelB leader and a histidine tag; also called BCD090-P1 purified from the periplasm; periplasmically expressed BCD090-P1; source: E. coli, periplasmic expression (pET22b), purified; not shown: pelB leader (uncleaved), N-terminal, kept; His5, C-terminal, kept) VHH: EVQLVQSGGGLVQPGGSLRLSCAASGRTSSKYAMGWFRQAPGKGTEFVATISWSDGSTYYADSVEGRFTISRDNAKNTVYLQMNSLKPEDTAVYYCAAAVDVLAGTFEYEYDYWGQGTLVTVSS", 0.0044],
  ["BCD090-P1 (VHH, llama VHH from a phage display library; the product left after TEV cleavage; Monomer by SEC; One disulfide bond Cys22-Cys92; also called anti-ErbB3 single-domain antibody BCD090-P1; source: E. coli SHuffle T7 express or BL21(DE3), cytoplasmic, purified (IMAC, TEV cleavage, negative IMAC, ion exchange); not shown: His tag, N-terminal, cleaved; SUMO, N-terminal, cleaved) VHH: EVQLVQSGGGLVQPGGSLRLSCAASGRTSSKYAMGWFRQAPGKGTEFVATISWSDGSTYYADSVEGRFTISRDNAKNTVYLQMNSLKPEDTAVYYCAAAVDVLAGTFEYEYDYWGQGTLVTVSS", 0.003],
  ["BCD090-M2 (VHH, llama VHH from a phage display library; the product left after TEV cleavage; no PDB id is printed; also called anti-ErbB3 single-domain antibody BCD090-M2; source: E. coli SHuffle T7 express, cytoplasmic, purified (IMAC, TEV cleavage, negative IMAC, ion exchange); not shown: His tag, N-terminal, cleaved; SUMO, N-terminal, cleaved) VHH: QVQLVQSGGGLVQAGGSLRLSCAFSGRTFSMYTMGWFRQAPGKEREFVAANRGRGLSPDIADSVNGRFTISRDNAKNTLYLQMDSLKPEDTAVYYCAADLQYGSSWPQRSSAEYDYWGQGTTVTVSS", 0.0036],
  ["BCD090-M456 (VHH, llama VHH from a phage display library; the product left after TEV cleavage; Lacks the Cys22-Cys92 disulfide bond (cysteines reduced); CDR H3 of 23 residues; also called anti-ErbB3 single-domain antibody BCD090-M456; source: E. coli SHuffle T7 express or BL21(DE3), cytoplasmic, purified (IMAC, TEV cleavage, negative IMAC, ion exchange); not shown: His tag, N-terminal, cleaved; SUMO, N-terminal, …) VHH: QVQLVQSGGGLVQSGGSLKLSCVASGGPFSTYLMGWFRQAPGKEREFVTAISRSGLNTYYADSVKGRFTISRDNAKNTVYLQMHSLKPEDTAVYHCAARRGGTNSGSYYFDRPAVSDEYDLWGQGTLVTVSS", 0.0022]
]}
